B1: Azoarcus group I ribozyme (parent)
chain: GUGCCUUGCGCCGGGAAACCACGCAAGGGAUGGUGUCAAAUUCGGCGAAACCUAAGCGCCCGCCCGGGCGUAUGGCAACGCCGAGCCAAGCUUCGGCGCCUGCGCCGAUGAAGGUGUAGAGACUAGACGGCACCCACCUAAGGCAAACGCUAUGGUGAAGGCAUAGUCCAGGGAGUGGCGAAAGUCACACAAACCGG

variants of: B1; experiment: reverse-splicing fitness (ratio to wild type); higher = more active; in vitro selection; Mg2+ level not given
Answer NOT MET if reverse-splicing fitness is under 0.01, and MET if it is 0.01 or more.

Query block: Has C82A A111C A145U C150G U176G a recorded reverse-splicing fitness greater than or equal to 0.01?
Result block: NOT MET

Query block: Given the entry C82A A120G A145U C150A C169G U176A , answer whether its reverse-splicing fitness meets or surpasses 0.01.
Result block: MET

Query block: Check this variant for reverse-splicing fitness at or above 0.01: A111G A120G A145U C169G U176G
Result block: NOT MET

Query block: Is the recorded value of reverse-splicing fitness equal to or greater than 0.01 for this variant? C82G A120G A145G C150A U176C
Result block: MET

Query block: Can C82G A120G A145U C169U be said to have reverse-splicing fitness at or above 0.01?
Result block: MET

Query block: Does reverse-splicing fitness meet or surpass 0.01 for C82U A120U A145G C150A C169U ?
Result block: NOT MET

Query block: Given C82U A111U A145G C150U C169G U176G , state whether its reverse-splicing fitness is at least 0.01.
Result block: NOT MET

Query block: For this variant, is measured reverse-splicing fitness 0.01 or higher? C82G A111U A120G C150A C169G
Result block: MET

Query block: Does C82U A111C A120U C150A C169U U176G have a reported reverse-splicing fitness of at least 0.01?
Result block: NOT MET

Query block: Please indicate if the recorded reverse-splicing fitness for C82A A111G C150G C169A U176A meets or exceeds 0.01.
Result block: MET

Query block: Check if reverse-splicing fitness >= 0.01 (inclusive). Item: C82G A111G A145G C169U U176G
Result block: NOT MET

Query block: Determine whether measured reverse-splicing fitness meets or exceeds 0.01 for C82G A111G A120C A145C C169G
Result block: NOT MET

Query block: Record A111U A145U C169G U176C ; criterion: reverse-splicing fitness no lower than 0.01. Met?
Result block: MET

Query block: Record C82G A120U A145G C150U U176A ; criterion: reverse-splicing fitness no lower than 0.01. Met?
Result block: MET

Query block: I'd appreciate it if you could say whether C82U A111G A120U C169U has reverse-splicing fitness at least equal to 0.01.
Result block: NOT MET

Query block: Reported reverse-splicing fitness at or above 0.01? C82U A120G A145G C169A U176A
Result block: MET

Query block: Entry C82A A111G A145U C150U C169G U176A : is its reverse-splicing fitness no less than 0.01?
Result block: MET

Query block: Is it the case that C82U A111U A145G C150A C169G has reverse-splicing fitness reaching or exceeding 0.01?
Result block: NOT MET

Query block: Check if reverse-splicing fitness >= 0.01 (inclusive). Item: A111C A145C C150U C169G U176C
Result block: MET

Query block: Can C82G A111G A120U C150G be said to have reverse-splicing fitness at or above 0.01?
Result block: NOT MET

Query block: Does reverse-splicing fitness meet or surpass 0.01 for A111U A145C C150U C169A U176C ?
Result block: NOT MET

Query block: Given the entry C82G A111G A145U C169U , answer whether its reverse-splicing fitness meets or surpasses 0.01.
Result block: MET

Query block: Check if reverse-splicing fitness >= 0.01 (inclusive). Item: C82U A111G A120G A145U C150G C169G U176G
Result block: NOT MET

Query block: Quick check: does C82U A111G A120C A145U C150U C169A have reverse-splicing fitness greater than or equal to 0.01?
Result block: NOT MET

Query block: # bool: reverse-splicing fitness of C82A A120U A145U C150U C169G U176A >= 0.01
Result block: NOT MET

The measurements presented in this section are drawn from the RNAGym collection of RNA variant scans (doi:10.1093/molbev/msab373).
